Data origin: patent US20120053182A1

assay_summary: Pharmacokinetics after oral administration to healthy human volunteers
Assay type: in vivo
setup_conditions: human, serum, po, 5 mg, composition providing about 5 mg, AUC to time serum level drops below detectable limit, healthy human volunteers, read-out: AUC(tf)

compound	AUC
COCCOc1ccc(N2CCN(CCN3N=CC4c5nc(-c6ccco6)nn5C(N)=NC43)CC2)cc1 (stereo not shown) [compound of Formula I]	336 to 457 ng·h/mL

----------
assay_summary: Pharmacokinetics after oral administration to healthy human volunteers
Type: in vivo
setup_conditions: composition providing about 5 mg, serum, average across healthy human volunteers
experimental_endpoint: Cmax

molecule	experimental_endpoint	reported_value
COCCOc1ccc(N2CCN(CCN3N=CC4c5nc(-c6ccco6)nn5C(N)=NC43)CC2)cc1 (stereo not shown)	Cmax	112 to 130 ng/mL
